// values below are reported pIC50
Biological target: ROCK2 (Homo sapiens, UniProt O75116)
Sequence (O75116 whole entry, species assumed): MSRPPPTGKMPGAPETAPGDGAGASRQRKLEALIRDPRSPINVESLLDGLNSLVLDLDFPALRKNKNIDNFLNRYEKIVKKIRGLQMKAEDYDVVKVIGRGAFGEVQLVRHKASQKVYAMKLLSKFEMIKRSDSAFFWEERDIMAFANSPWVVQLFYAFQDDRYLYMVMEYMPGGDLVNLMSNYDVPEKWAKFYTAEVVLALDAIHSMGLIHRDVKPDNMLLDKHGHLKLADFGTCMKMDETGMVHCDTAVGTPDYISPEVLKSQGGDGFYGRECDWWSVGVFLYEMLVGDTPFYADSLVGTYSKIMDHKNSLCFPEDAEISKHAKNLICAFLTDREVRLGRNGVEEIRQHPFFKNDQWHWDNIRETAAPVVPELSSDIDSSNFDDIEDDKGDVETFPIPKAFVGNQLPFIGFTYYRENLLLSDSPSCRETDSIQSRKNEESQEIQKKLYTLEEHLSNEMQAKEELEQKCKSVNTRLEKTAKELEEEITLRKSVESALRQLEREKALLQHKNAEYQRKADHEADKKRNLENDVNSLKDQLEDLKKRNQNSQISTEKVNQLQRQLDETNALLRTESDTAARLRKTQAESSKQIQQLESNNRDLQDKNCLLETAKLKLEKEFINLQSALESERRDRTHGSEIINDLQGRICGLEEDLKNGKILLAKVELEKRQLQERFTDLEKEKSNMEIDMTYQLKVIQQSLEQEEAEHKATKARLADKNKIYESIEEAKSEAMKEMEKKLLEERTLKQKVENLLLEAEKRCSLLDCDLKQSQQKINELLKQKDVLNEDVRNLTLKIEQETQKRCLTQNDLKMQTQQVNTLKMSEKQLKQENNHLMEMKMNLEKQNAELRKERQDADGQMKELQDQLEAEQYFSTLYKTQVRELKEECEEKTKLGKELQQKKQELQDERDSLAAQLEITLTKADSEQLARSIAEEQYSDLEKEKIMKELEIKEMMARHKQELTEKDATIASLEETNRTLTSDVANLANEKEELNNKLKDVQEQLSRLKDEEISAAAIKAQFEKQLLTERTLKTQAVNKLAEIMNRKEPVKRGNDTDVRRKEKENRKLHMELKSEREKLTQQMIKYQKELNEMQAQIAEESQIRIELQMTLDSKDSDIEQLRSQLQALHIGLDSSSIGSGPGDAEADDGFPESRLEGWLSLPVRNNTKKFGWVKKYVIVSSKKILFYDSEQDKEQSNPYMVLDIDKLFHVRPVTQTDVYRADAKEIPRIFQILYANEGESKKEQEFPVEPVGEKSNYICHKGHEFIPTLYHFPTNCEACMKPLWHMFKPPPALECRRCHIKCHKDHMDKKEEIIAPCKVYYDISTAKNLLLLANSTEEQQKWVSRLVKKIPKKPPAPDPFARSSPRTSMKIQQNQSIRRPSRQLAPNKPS
pIC50: −log10 of the molar value.

COMPOUND	pIC50
CCCC1CN(c2ccc(-c3n[nH]c(=O)c4ccccc34)cc2)C(=O)O1 (stereo not drawn) [Example 17]	6.30 to 7.00
O=C1C(Nc2ccc3c(c2)OCO3)CCN1c1ccc(-c2n[nH]c(=O)c3ccccc23)cc1 (stereo not drawn) [Example 33]	7.00 to 8.00
CC(C)n1ccc(NC2CCN(c3ccc(-c4n[nH]c(=O)c5ccccc45)cc3)C2=O)n1 (stereo not drawn) [Example 64]	7.00 to 8.00

* * *

// values below are reported IC50
Target: ROCK2 (Homo sapiens)

MOLECULE	IC50
O=c1[nH]nc(-c2ccc(-n3ncn(Cc4ccccc4)c3=O)cc2)c2ccccc12 [Example 41]	100 to 500 nM
O=C(Nc1ccccc1)C1CCN(c2ccc(-c3n[nH]c(=O)c4ccccc34)cc2)C1=O (stereo not shown) [Example 6]	100 to 500 nM
O=C1C(c2ccccc2)CCN1c1ccc(-c2n[nH]c(=O)c3ccccc23)cc1 (stereo not shown) [Example 1]	100 to 500 nM
COc1cc(C)cc(NC2CCN(c3ccc(-c4n[nH]c(=O)c5ccccc45)cc3)C2=O)c1 (stereo not shown) [Example 38]	10 to 100 nM
COc1cc(NC2CCN(c3ccc(-c4n[nH]c(=O)c5ccccc45)cc3)C2=O)ccc1F (stereo not shown) [Example 42]	10 to 100 nM
O=C1C(Nc2ccc3c(c2)OCCCO3)CCN1c1ccc(-c2n[nH]c(=O)c3ccccc23)cc1 (stereo not shown) [Example 34]	10 to 100 nM
COc1cc(NC2CCN(c3ccc(-c4n[nH]c(=O)c5ccccc45)cc3)C2=O)ccc1N1CCN(C)CC1 (stereo not shown) [Example 48]	10 to 100 nM
COc1ccc(F)c(NC2CCN(c3ccc(-c4n[nH]c(=O)c5ccccc45)cc3)C2=O)c1 (stereo not shown) [Example 37]	10 to 100 nM
O=C1C(NC2Cc3ccccc3C2)CCN1c1ccc(-c2n[nH]c(=O)c3ccccc23)cc1 (stereo not shown) [Example 29]	500 to 2000 nM
O=C1C(Nc2ccc3c(c2)OCCCO3)CCN1c1ccc(-c2n[nH]c(=O)c3ccccc23)cc1 (single isomer, unassigned) [Example 77]	10 to 100 nM

Where do the numbers come from? From patent US10730858B2.
